# Test system: HOP-92
# test summary: NCI tumour cell line growth inhibition, 48 h
The source made the active and inactive calls. No stated cut-off is given here; in the data, active = GI50 up to about 1.1 µM and inactive = higher.
measurement label: GI50

# count of solved cases: 3
Cc1nnc2n1N=C(c1ccccc1)/C(=C/c1ccc(-c3ccc(Cl)cc3)o1)S2: 17.5 µM (inactive)
Cc1ccc(S(=O)(=O)N/N=C2\C=CC3(CC2)C(=O)N(I)c2ccccc23)cc1 (stereo not given): 89.7 µM (inactive)
COc1cc(/C=C/c2sc3ccccc3[n+]2C)ccc1N(C)C: 1.85 µM (inactive)

Which GI50 value is on record for CC(=O)OCC1OC(NC(=S)Nn2c(-c3ccccc3)nc3ccccc3c2=O)C(OC(C)=O)C(OC(C)=O)C1OC(C)=O (stereo not given) ?
38.4 µM (inactive)

Request: "COc1c(OC)c(OC)c2c(=O)cc(-c3ccc(OC(C)C)cc3)oc2c1OC"
8.17 µM (inactive)

Follow-up entry: O=c1[nH]c2ccc([N+](=O)[O-])cc2nc1/C(=N/Nc1ccccc1)C(O)c1ccco1 (stereo not given)
> 100 µM (inactive)

Then this compound: "Cc1nnc2n1N=C(c1cc(F)c(Cl)cc1Cl)/C(=C/c1ccc3c(c1)OCO3)S2"
65.8 µM (inactive)

Then what about the compound "N#Cc1cc(-c2nc3ccc(F)cc3s2)ccc1N" ?
> 100 µM (inactive)

Note, next up: "COc1c(C(=O)/C(=N/Nc2ccccc2)C(C)=O)c(O)c(OC)c2occc12"
9.38 µM (inactive)

// query: "COc1cc2c3c(c1)CCCN3CCC2"
> 10 µM (inactive)

Every entry's value here was drawn from ChEMBL document CHEMBL1201862.
